target_system: T1, cynomolgus monkey transferrin receptor 1 (cTfR1) (cynomolgus monkey, UniProt H9EXL1 89-760 (rhesus entry))
T1 construct: The ELISA against cTfR1 is not described in the text
T1 sequence (chain, as listed by the source): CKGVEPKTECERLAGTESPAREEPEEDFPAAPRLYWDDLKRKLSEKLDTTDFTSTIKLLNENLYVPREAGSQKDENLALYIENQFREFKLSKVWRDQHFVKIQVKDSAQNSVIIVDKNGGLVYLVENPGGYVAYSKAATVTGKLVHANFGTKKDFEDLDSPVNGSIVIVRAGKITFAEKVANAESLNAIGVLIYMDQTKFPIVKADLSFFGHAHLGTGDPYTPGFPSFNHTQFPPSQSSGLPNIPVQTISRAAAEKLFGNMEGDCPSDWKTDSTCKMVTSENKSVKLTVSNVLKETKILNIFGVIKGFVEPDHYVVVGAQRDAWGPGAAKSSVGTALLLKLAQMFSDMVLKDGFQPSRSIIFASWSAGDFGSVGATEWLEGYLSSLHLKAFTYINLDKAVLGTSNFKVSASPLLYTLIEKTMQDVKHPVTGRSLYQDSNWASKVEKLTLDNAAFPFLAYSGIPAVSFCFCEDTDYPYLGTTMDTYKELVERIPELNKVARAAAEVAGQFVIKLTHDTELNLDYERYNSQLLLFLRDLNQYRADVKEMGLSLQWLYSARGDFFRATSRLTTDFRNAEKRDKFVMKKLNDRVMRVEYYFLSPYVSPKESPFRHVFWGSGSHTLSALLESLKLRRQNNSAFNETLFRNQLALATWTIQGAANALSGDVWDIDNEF
test_name: competition ELISA, Fab
Each entry below carries its recorded pKd.
Answer as the number alone; pKd is minus log10 of concentration in mol/L.

{"binder": "Fab0074 (Fab, V domains shown) VH: EVQLVESGGGLVQPGGSLRLSCATSGYTFKSYWMHWVRQAPGKGLEWVAEINPTNGRTNYIEKFKSRITLSVDKSKSTVYLQMNSLRAEDTAVYYCARGTRAYHYWGQGTLVTVSS VL: DIQLTQSPSSLSASVGDRVTITCRASDGLYSNLAWYQQKPGKAPKLLIYDAKNLASGVPSRFSGSGSGTDYTLTISSLQPEDFATYYCQHFWGTPLTFGQGTKVEIKR", "numeric_readout": 7.76}
{"binder": "Fab0070 (Fab, V domains shown) VH: EVQLVESGGGLVQPGGSLRLSCATSGFTFTSYWMHWVRQAPGKGLEWVAEINPTNGRTNYIEKFKSRITLSVDKSKSTVYLQMNSLRAEDTAVYYCARGTRAYHYWGQGTLVTVSS VL: DIQLTQSPSSLSASVGDRVTITCRASDKLYSNLAWYQQKPGKAPKLLIYDATLLASGVPSRFSGSGSGTDYTLTISSLQPEDFATYYCQHFWGTPLTFGQGTKVEIKR", "numeric_readout": 7.81}
{"binder": "Fab0067 (Fab, V domains shown) VH: EVQLVESGGGLVQPGGSLRLSCATSGYTFTSYWVHWVRQAPGKGLEWVAEINPTNGRTNYIEKFKSRITLSVDKSKSTVYLQMNSLRAEDTAVYYCARGTRAYHYWGQGTLVTVSS VL: DIQLTQSPSSLSASVGDRVTITCRASDNLYRNLAWYQQKPGKAPKLLIYDATKLASGVPSRFSGSGSGTDYTLTISSLQPEDFATYYCQHFWGTPLTFGQGTKVEIKR", "numeric_readout": 8.52}
{"binder": "Fab0069 (Fab, V domains shown) VH: EVQLVESGGGLVQPGGSLRLSCATSGYTFTSYWVHWVRQAPGKGLEWVAEINPTNGRSNYIEKFKSRITLSVDKSKSTVYLQMNSLRAEDTAVYYCARGTRAYHYWGQGTLVTVSS VL: DIQLTQSPSSLSASVGDRVTITCRASDGLYSNLAWYQQKPGKAPKLLIYDATKLASGVPSRFSGSGSGTDYTLTISSLQPEDFATYYCQHFWGTPLTFGQGTKVEIKR", "numeric_readout": 8.33}

// below: pKd requested for another binder
Lookup: Recorded pKd for Fab0073 (Fab, V domains shown) VH: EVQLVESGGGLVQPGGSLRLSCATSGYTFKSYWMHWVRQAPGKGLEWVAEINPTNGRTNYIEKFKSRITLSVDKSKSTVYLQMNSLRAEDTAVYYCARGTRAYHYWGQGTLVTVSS VL: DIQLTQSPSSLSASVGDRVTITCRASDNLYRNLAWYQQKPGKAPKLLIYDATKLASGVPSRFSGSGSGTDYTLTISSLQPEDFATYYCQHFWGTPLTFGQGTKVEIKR , please?
Found: 8.06
